Quick reference for pIC50 among some molecules
target: E. coli Endo IV (Escherichia coli, UniProt P0A6C1); construct: made in house; assay: E. coli Endo IV profiling counterscreen; assay type: biochemical; conditions: read-out: EndoIV IC50;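 note: selectivity counterscreen of candidate APE1 inhibitors against the bacterial endonuclease Endo IV, run in the same assay format as the primary APE1 high-throughput screen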
# pIC50 = -log10(concentration in molar units)

molecule	endpoint	number
O=C(COC(=O)C1CC(=O)N(Cc2ccco2)C1)c1ccc(OC(=O)c2ccccc2)cc1 (centres unmarked)	pIC50	5.00

Kindly consider the entry below.
Entry O=C(CSc1nc(-c2ccc(F)cc2)nc2c1Cc1ccccc1O2)Nc1ccc(C(=O)O)cc1 , pIC50 reported as 4.85

---

target: double-stranded 17-mer DNA fragment; assay: ThO (Thiazole Orange) DNA displacement assay; assay type: binding; details: read-out: ThO-DNA binding IC50;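 note: miniaturized displacement of the intercalating dye from unlabeled duplex DNA, used to flag nonspecific DNA binders, chiefly intercalators, groove binders may be missed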
endpoint: IC50

These solved cases illustrate the format of a correct answer.
compound	IC50
O=C(CSc1nnc(Nc2ccccc2F)s1)NC(=O)CN1CCCC1=O	> 57 µM
Cc1coc2c(C)c3oc(=O)c(CCC(=O)N[C@@H](C)C(=O)N[C@@H](Cc4ccccc4)C(=O)O)c(C)c3cc12	> 57 µM
Cc1ccc(NC(=O)C(c2ccccc2)N2CCN(CC(=O)N3CCOCC3)CC2)cc1Cl (stereo not shown)	> 57 µM

Kindly consider the entry below.
Entry O=C(O)C1Nc2ccc(Br)cc2C2C=CCC12 (stereo not shown) , IC50 reported as 25.7 µM
